Assay: self-splicing fitness, log relative to wild type (ln ratio); higher = more splicing; Tetrahymena group I intron in knt gene, E. coli kanamycin selection, DiMSum; sequences stand for … in CUCUCU…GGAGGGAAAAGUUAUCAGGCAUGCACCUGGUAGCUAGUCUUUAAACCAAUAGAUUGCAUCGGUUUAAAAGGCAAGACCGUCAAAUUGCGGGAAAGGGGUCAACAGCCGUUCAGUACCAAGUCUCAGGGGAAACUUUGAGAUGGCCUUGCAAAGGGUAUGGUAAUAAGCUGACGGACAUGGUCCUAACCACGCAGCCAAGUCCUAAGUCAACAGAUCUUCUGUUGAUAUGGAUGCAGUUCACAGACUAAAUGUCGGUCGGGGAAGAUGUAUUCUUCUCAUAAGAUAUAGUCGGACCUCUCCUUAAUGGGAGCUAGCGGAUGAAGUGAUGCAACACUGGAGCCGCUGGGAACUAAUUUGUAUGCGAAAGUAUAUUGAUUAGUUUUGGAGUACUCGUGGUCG;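 further: selection with 25 µg/mL kanamycin versus none on LB agar overnight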
Conditions: 37 °C
Recorded self-splicing fitness (ln), one value per entry.

{"sequence record": "UCGGAGCAAUAUUACGUCGU", "self-splicing fitness (ln)": -1.73}
{"sequence record": "CAAGAGCAAUAUUACGUGAC", "self-splicing fitness (ln)": -3.01}
{"sequence record": "AGAGAGCAAUAUUACGCUGC", "self-splicing fitness (ln)": -2.63}
{"sequence record": "GUCCAGCAAUAUUACGGAUC", "self-splicing fitness (ln)": -3.62}
{"sequence record": "CCCGAGCAAUAUUACGGUCG", "self-splicing fitness (ln)": -2.58}
{"sequence record": "AAGAAGCAAUAUUACGCCCG", "self-splicing fitness (ln)": -1.38}
{"sequence record": "AAGGAGCAAUAUUACGAAUA", "self-splicing fitness (ln)": -2.77}
{"sequence record": "AGGCAGCAAUAUUACGACAC", "self-splicing fitness (ln)": -0.221}
